Source of measurements: patent US12390441B2

# System: TNF-α
# Experiment Summary: Whole blood assay, LPS stimulation, MSD cytokine detection
# Type: cell-based
# Assay Conditions: fresh whole bovine blood
Result Type: pIC50
Notebook: values listed as pIC50 are -log10 of the concentration (mol/L).

Previously resolved entries follow.
>>> recorded_number("CCCNC[C@]1(O)[C@H](C)O[C@@H](O[C@H]2[C@H](C)[C@@H](O[C@@H]3O[C@H](C)C[C@H](N(C)C)[C@H]3Oc3ccc(F)cc3)[C@](C)(O)C[C@@H](C)CN[C@H](C)[C@@H](O)[C@](C)(O)[C@@H](CC)OC(=O)[C@@H]2C)C[C@@]1(C)OC")
4.89
>>> recorded_number("CC[C@H]1OC(=O)[C@H](C)[C@@H](O)[C@H](C)[C@@H](O[C@@H]2O[C@H](C)C[C@H](N(C)C(=O)N(C)c3ccccc3)[C@H]2Oc2ccc3ncccc3c2)[C@](C)(O)C[C@@H](C)CN(C)[C@H](C)[C@@H](O)[C@]1(C)O")
4.92
>>> recorded_number("CC[C@H]1OC(=O)[C@H](C)[C@@H](O[C@H]2C[C@@](C)(OC)[C@](O)(CNC(C)C)[C@H](C)O2)[C@H](C)[C@@H](O[C@@H]2O[C@H](C)C[C@H](N(C)C)[C@H]2Oc2ccc(F)cc2)[C@](C)(O)C[C@@H](C)CN[C@H](C)[C@@H](O)[C@]1(C)O")
5.22

For reference, reported pIC50 for CCCNC[C@]1(O)[C@H](C)O[C@@H](O[C@H]2[C@H](C)[C@@H](O[C@@H]3O[C@H](C)C[C@H](NC)[C@H]3Oc3ccc(F)c(F)c3)[C@](C)(O)C[C@@H](C)CN[C@H](C)[C@@H](O)[C@](C)(O)[C@@H](CC)OC(=O)[C@@H]2C)C[C@@]1(C)OC stands at 5.52

====

# System: TNF-α
# Experiment Summary: Whole blood assay, LPS stimulation, MSD cytokine detection
# Type: cell-based
# Assay Conditions: fresh whole bovine blood
pIC50: −log10 of the molar value.
Threshold check on pIC50: at or above 5 gives Y, strictly below gives N.

>>> label_class("CCOc1cccc(O[C@H]2[C@H](O[C@@H]3[C@@H](C)[C@H](O)[C@@H](C)C(=O)O[C@H](CC)[C@@](C)(O)[C@H](O)[C@@H](C)NC[C@H](C)C[C@@]3(C)O)O[C@H](C)C[C@@H]2N(C)C(=O)N(C)c2ccccc2)c1 [Example C-37]")
"Y"
>>> label_class("CCCNC[C@]1(O)[C@H](C)O[C@@H](O[C@H]2[C@H](C)[C@@H](O[C@@H]3O[C@H](C)C[C@H](NC)[C@H]3Oc3ccc(OC)c(OC(C)C)c3)[C@](C)(O)C[C@@H](C)CN[C@H](C)[C@@H](O)[C@](C)(O)[C@@H](CC)OC(=O)[C@@H]2C)C[C@@]1(C)OC [Example E-20]")
"N"
>>> label_class("CC[C@H]1OC(=O)[C@H](C)[C@@H](O[C@H]2C[C@@](C)(OC)[C@](O)(CNCCOC)[C@H](C)O2)[C@H](C)[C@@H](O[C@@H]2O[C@H](C)C[C@H](N(C)C)[C@H]2Oc2ccccc2)[C@](C)(O)C[C@@H](C)CN[C@H](C)[C@@H](O)[C@]1(C)O [Example E-145]")
"N"

Is pIC50 for CCCNC[C@]1(O)[C@H](C)O[C@@H](O[C@H]2[C@H](C)[C@@H](O[C@@H]3O[C@H](C)C[C@H](NC)[C@H]3Oc3ccccc3)[C@](C)(O)C[C@@H](C)CN(C)[C@H](C)[C@@H](O)[C@](C)(O)[C@@H](CC)OC(=O)[C@@H]2C)C[C@@]1(C)OC [Example E-152] at or above 5?
N

Is pIC50 for CCCNC[C@]1(O)[C@H](C)O[C@@H](O[C@H]2[C@H](C)[C@@H](O[C@@H]3O[C@H](C)C[C@H](NC)[C@H]3Oc3ccccc3OCC)[C@](C)(O)C[C@@H](C)CN[C@H](C)[C@@H](O)[C@](C)(O)[C@@H](CC)OC(=O)[C@@H]2C)C[C@@]1(C)OC [Example E-78] at or above 5?
N

Is pIC50 for CC[C@H]1OC(=O)[C@H](C)[C@@H](O[C@H]2C[C@@](C)(OC)[C@](O)(CN(C)CCN(C)C)[C@H](C)O2)[C@H](C)[C@@H](O[C@@H]2O[C@H](C)C[C@H](N(C)C)[C@H]2Oc2ccc(F)cc2)[C@](C)(O)C[C@@H](C)CN[C@H](C)[C@@H](O)[C@]1(C)O [Example E-113] at or above 5?
N

====

compounds and their reported IC50
# Test system: TNF-α
# Experiment Summary: Whole blood assay, LPS stimulation, MSD cytokine detection
# Format: cell-based
# Assay Conditions: fresh whole bovine blood
Give just the number in µM; leave the unit off.

Previously resolved entries follow.
>>> recorded_number("CC[C@H]1OC(=O)[C@H](C)[C@@H](O[C@H]2C[C@@](C)(OC)[C@@H](O)[C@H](C)O2)[C@H](C)[C@@H](O[C@@H]2O[C@H](C)C[C@H](NC)[C@H]2Oc2cnc(Cl)cc2C)[C@](C)(O)C[C@@H](C)CN(C)[C@H](C)[C@@H](O)[C@]1(C)O")
7
>>> recorded_number("CC[C@H]1OC(=O)[C@H](C)[C@@H](O)[C@H](C)[C@@H](O[C@@H]2O[C@H](C)C[C@H](N(C)C(=O)N(C)C3CCC3)[C@H]2Oc2ccccc2)[C@](C)(O)C[C@@H](C)CN[C@H](C)[C@@H](O)[C@]1(C)O")
28
>>> recorded_number("CC[C@H]1OC(=O)[C@H](C)[C@@H](O[C@H]2C[C@@](C)(OC)[C@](O)(CNCCCOC)[C@H](C)O2)[C@H](C)[C@@H](O[C@@H]2O[C@H](C)C[C@H](NC)[C@H]2Oc2ccccc2)[C@](C)(O)C[C@@H](C)CN[C@H](C)[C@@H](O)[C@]1(C)O")
35
>>> recorded_number("CCCNC[C@]1(O)[C@H](C)O[C@@H](O[C@H]2[C@H](C)[C@@H](O[C@@H]3O[C@H](C)C[C@H](NC)[C@H]3Oc3ccccc3C)[C@](C)(O)C[C@@H](C)CN[C@H](C)[C@@H](O)[C@](C)(O)[C@@H](CC)OC(=O)[C@@H]2C)C[C@@]1(C)OC")
5
>>> recorded_number("CC[C@H]1OC(=O)[C@H](C)[C@@H](O[C@H]2C[C@@](C)(OC)[C@](O)(CNCCN(C)C)[C@H](C)O2)[C@H](C)[C@@H](O[C@@H]2O[C@H](C)C[C@H](N(C)C)[C@H]2Oc2ccc(F)cc2)[C@](C)(O)C[C@@H](C)CN[C@H](C)[C@@H](O)[C@]1(C)O")
13

For reference, reported IC50 for CCCNC[C@]1(O)[C@H](C)O[C@@H](O[C@H]2[C@H](C)[C@@H](O[C@@H]3O[C@H](C)C[C@H](NC)[C@H]3Oc3cccc(OCC)c3)[C@](C)(O)C[C@@H](C)CN[C@H](C)[C@@H](O)[C@](C)(O)[C@@H](CC)OC(=O)[C@@H]2C)C[C@@]1(C)OC stands at 30

For reference, reported IC50 for CC[C@H]1OC(=O)[C@H](C)[C@@H](O[C@H]2C[C@@](C)(OC)[C@](O)(CNCC3CC3)[C@H](C)O2)[C@H](C)[C@@H](O[C@@H]2O[C@H](C)C[C@H](N(C)C)[C@H]2Oc2ccc(F)cc2)[C@](C)(O)C[C@@H](C)CN[C@H](C)[C@@H](O)[C@]1(C)O stands at 6

====

# Test system: TNF-α
# Experiment Summary: Whole blood assay, LPS stimulation, MSD cytokine detection
# Type: cell-based
# Assay Conditions: fresh whole bovine blood
compounds and their reported pIC50
Notebook: values listed as pIC50 are -log10 of the concentration (mol/L).

Previously resolved entries follow.
>>> recorded_number("CC[C@H]1OC(=O)[C@H](C)[C@@H](O[C@H]2C[C@@](C)(OC)[C@@H](O)[C@H](C)O2)[C@H](C)[C@@H](O[C@@H]2O[C@H](C)C[C@H](NC)[C@H]2Oc2ccc(OC)c(OC(C)C)c2)[C@](C)(O)C[C@@H](C)CN(C)[C@H](C)[C@@H](O)[C@]1(C)O")
5.40
>>> recorded_number("CCCNC[C@]1(O)[C@H](C)O[C@@H](O[C@H]2[C@H](C)[C@@H](O[C@@H]3O[C@H](C)C[C@H](NC)[C@H]3Oc3ccc(C(N)=O)cc3)[C@](C)(O)C[C@@H](C)CN[C@H](C)[C@@H](O)[C@](C)(O)[C@@H](CC)OC(=O)[C@@H]2C)C[C@@]1(C)OC")
3.90
>>> recorded_number("CCCNC[C@]1(O)[C@H](C)O[C@@H](O[C@H]2[C@H](C)[C@@H](O[C@@H]3O[C@H](C)C[C@H](NC)[C@H]3Oc3ccc(OCC)cc3)[C@](C)(O)C[C@@H](C)CN[C@H](C)[C@@H](O)[C@](C)(O)[C@@H](CC)OC(=O)[C@@H]2C)C[C@@]1(C)OC")
4.40
>>> recorded_number("CC[C@H]1OC(=O)[C@H](C)[C@@H](O[C@H]2C[C@@](C)(OC)[C@@H](O)[C@H](C)O2)[C@H](C)[C@@H](O[C@@H]2O[C@H](C)C[C@H](N(C)C)[C@H]2Oc2cnc(Cl)cc2C)[C@](C)(O)C[C@@H](C)CN(C)[C@H](C)[C@@H](O)[C@]1(C)O")
5.40

For reference, reported pIC50 for CCCNC[C@]1(O)[C@H](C)O[C@@H](O[C@H]2[C@H](C)[C@@H](O[C@@H]3O[C@H](C)C[C@H](NC)[C@H]3Oc3ccc4ccncc4c3)[C@](C)(O)C[C@@H](C)CN[C@H](C)[C@@H](O)[C@](C)(O)[C@@H](CC)OC(=O)[C@@H]2C)C[C@@]1(C)OC stands at 4.96

For reference, reported pIC50 for CC[C@H]1OC(=O)[C@H](C)[C@@H](O[C@H]2C[C@@](C)(OC)[C@@H](O)[C@H](C)O2)[C@H](C)[C@@H](O[C@@H]2O[C@H](C)C[C@H](N(C)C)[C@H]2Oc2ccc3ccncc3c2)[C@](C)(O)C[C@@H](C)CN(C)[C@H](C)[C@@H](O)[C@]1(C)O stands at 4.72

For reference, reported pIC50 for CC[C@H]1OC(=O)[C@H](C)[C@@H](O)[C@H](C)[C@@H](O[C@@H]2O[C@H](C)C[C@H](N(C)C(=O)N(C)c3ncccn3)[C@H]2Oc2ccccc2)[C@](C)(O)C[C@@H](C)CN(C)[C@H](C)[C@@H](O)[C@]1(C)O [Example C-22] stands at 4.03
